Target: AIMP2-DX2 (Homo sapiens, UniProt Q13155)
Sequence (Q13155 1-251 isoform Q13155-2): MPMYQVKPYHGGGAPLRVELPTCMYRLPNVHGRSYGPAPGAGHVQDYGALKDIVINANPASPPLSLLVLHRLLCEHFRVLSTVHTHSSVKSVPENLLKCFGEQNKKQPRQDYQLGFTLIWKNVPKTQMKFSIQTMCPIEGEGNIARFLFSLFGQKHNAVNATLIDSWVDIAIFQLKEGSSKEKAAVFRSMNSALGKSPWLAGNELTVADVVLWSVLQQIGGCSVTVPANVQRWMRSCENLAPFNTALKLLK
Assay: DX2-nanoluciferase assay (DX2 expression change) in transfected A549 cells
Settings: A549, 4 h, read-out: DX-Nanoluciferase activity (10 μM), 10 μM, 4 hours treatment, A549 cells transfected with nanoluciferase-DX2
# reported inhibition at 10 µM; entries follow
I only need the number, in %, no unit after it.

Previously resolved entries follow.
INSERT INTO assay_data (compound, meas_value) VALUES
  ('COc1cc(N2CCNCC2)ccc1NC(=O)[C@H](Cc1c[nH]c2ccccc12)NS(=O)(=O)c1ccc(C)cc1', 41.7),
  ('CCOC(=O)c1ccc(S(=O)(=O)N[C@@H](Cc2c[nH]c3ccccc23)C(=O)Nc2ccc(N3CCOCC3)cc2)cc1', 3.48),
  ('Cc1ccc(S(=O)(=O)N[C@@H](Cc2c[nH]c3ccccc23)C(=O)NCCc2c[nH]c3ccccc23)cc1', 31.3);

Value (inhibition at 10 µM, AIMP2-DX2 (Homo sapiens, UniProt Q13155)) for record "Cc1ccc(S(=O)(=O)N[C@@H](Cc2ccc(C(=O)c3ccccc3)cc2)C(=O)Nc2ccc(N3CCOCC3)cc2)cc1" = 2.16

Item "Cc1ccc(-c2csc(NC(=O)[C@H](Cc3c[nH]c4ccccc34)NS(=O)(=O)c3ccc(Br)cc3)n2)cc1" ; assay system AIMP2-DX2 (Homo sapiens, UniProt Q13155); inhibition at 10 µM reported as 34.9

Form field, inhibition at 10 µM with AIMP2-DX2 (Homo sapiens, UniProt Q13155), item "Cc1ccc(S(=O)(=O)N[C@@H](Cc2c[nH]c3ccccc23)C(=O)NCCc2ccc(Cl)cc2)cc1" : 88.7

Item "Cc1ccc(S(=O)(=O)N[C@@H](Cc2c[nH]c3ccccc23)C(=O)NCCc2ccc(Br)cc2)cc1" was tested on AIMP2-DX2 (Homo sapiens, UniProt Q13155); the reported inhibition at 10 µM is 40.1

# "O=C(Nc1nc(-c2ccc(C(F)(F)F)cc2)cs1)[C@H](Cc1c[nH]c2ccccc12)NS(=O)(=O)c1ccc(Br)cc1" with AIMP2-DX2 (Homo sapiens, UniProt Q13155): inhibition at 10 µM is 49.3

Item "CCCCCCCCCC(=O)NNC(=O)[C@H](Cc1c[nH]c2ccccc12)NS(=O)(=O)c1ccc(Br)cc1" ; assay system AIMP2-DX2 (Homo sapiens, UniProt Q13155); inhibition at 10 µM reported as 45.4

Here "COC(=O)c1ccc(S(=O)(=O)N[C@@H](Cc2c[nH]c3ccccc23)C(=O)Nc2ccc(N3CCOCC3)cc2)cc1" was tested on AIMP2-DX2 (Homo sapiens, UniProt Q13155), and its inhibition at 10 µM came to 15.1

Let me check: "Cc1ccc(S(=O)(=O)N[C@@H](Cc2c[nH]c3ccccc23)C(=O)NCCc2ccccc2)cc1" , system AIMP2-DX2 (Homo sapiens, UniProt Q13155), measured inhibition at 10 µM is 61.1

Observed inhibition at 10 µM on AIMP2-DX2 (Homo sapiens, UniProt Q13155), entry "COc1ccc(-c2csc(NC(=O)[C@H](Cc3c[nH]c4ccc(C)cc34)NS(=O)(=O)c3ccc(Br)cc3)n2)cc1" , equals 34.8

Test item "N#Cc1ccc(-c2csc(NC(=O)[C@H](Cc3c[nH]c4ccccc34)NS(=O)(=O)c3ccc(Br)cc3)n2)cc1" ; AIMP2-DX2 (Homo sapiens, UniProt Q13155); reported inhibition at 10 µM was 15.5
